Test Details: NCI Yeast Anticancer Drug Screen. Data for the rad50 strain (AID 155);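 further: 0% = growth of vehicle-only cultures of the same strain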
Experimental Conditions: S. cerevisiae rad50 strain growth inhibition; at 50.0 µM; hits give high values
Compounds without any hit were thinned out: in the full panel of roughly 79,000, 15% have a hit.
Property: growth inhibition (%)
Numbers only here, please. The scale is %.

These recorded examples may help you get a feel for the data.
[[record]]
molecule = "COC1OC2=CCC3C(=O)NC(=O)C3C2[C@H](OCc2ccccc2)C1OCc1ccccc1 (some centres not stated)"
property = "growth inhibition"
test_value = 98.4

[[record]]
molecule = "Cc1cccc(Cc2cccc(Cl)c2)c1O"
property = "growth inhibition"
test_value = 99.3

[[record]]
molecule = "Nc1ccc(SC23CC4CC(CC(C4)C2)C3)cc1"
property = "growth inhibition"
test_value = 94.1

[[record]]
molecule = "CCCCCCCCCCCCS"
property = "growth inhibition"
test_value = 26.2

[[record]]
molecule = "C/C(=N/NC(=O)C[n+]1ccccc1)C(CN(CC(C)C)CC(C)C)C(=O)Nc1ccc(C)cc1C (configuration not stated)"
property = "growth inhibition"
test_value = 30.1

[[record]]
molecule = "O=C(O)CCC(c1ccccc1)(c1ccccc1)c1ccccc1"
property = "growth inhibition"
test_value = 99.5

[[record]]
molecule = "CC(C)(C)C1=CC(=CC=C2C=CN(CCO)C=C2)C=C(C(C)(C)C)C1=O"
property = "growth inhibition"
test_value = 29.1

[[record]]
molecule = "C[C@H]1CC[C@@H]2[C@@H](C)[C@H]3[C@H](C[C@H]4[C@@H]5CC=C6C[C@@H](O)CC[C@]6(C)[C@H]5CC[C@]34C)N2C1"
property = "growth inhibition"
test_value = 58

[[record]]
molecule = "c1ccc2c(c1)Cc1cc3ccccc3nc1-2"
property = "growth inhibition"
test_value = 96.5

[[record]]
molecule = "c1c2c(cc(-n3nnc4c3CCCCCC4)c1-n1nnc3c1CCCCCC3)CCCCCC2"
property = "growth inhibition"
test_value = 89.4


Tell me measured growth inhibition for "CCCCCCCCCCCCCCCCCC[N+](C)(C)Cc1ccc(C[N+](C)(C)CCCCCCCCCCCCCCCCCC)cc1" please.
1.5
